Cited source: patent US20040147432A1

Give EC50 (aequorin functional assay) for every item shown.
Biological target: human melanin concentrating hormone type 2 receptor (MCH-2R) (human, UniProt Q969V1 1-340)
Sequence (Q969V1 whole entry, form in doubt): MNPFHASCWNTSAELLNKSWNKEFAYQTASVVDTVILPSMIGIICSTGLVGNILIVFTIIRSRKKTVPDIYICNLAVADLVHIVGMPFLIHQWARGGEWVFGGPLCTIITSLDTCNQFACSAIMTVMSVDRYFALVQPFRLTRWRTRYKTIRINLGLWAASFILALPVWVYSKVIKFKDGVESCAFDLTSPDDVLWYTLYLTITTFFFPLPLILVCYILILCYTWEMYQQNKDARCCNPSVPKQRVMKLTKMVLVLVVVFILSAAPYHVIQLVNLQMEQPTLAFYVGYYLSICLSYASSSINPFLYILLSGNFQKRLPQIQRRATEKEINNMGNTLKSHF
Assay: cell-based or functional assay
Bridges are numbered along the chain shown (N, C = ends). Where no end group is shown, it is not given here.
Answers are plain numbers, in nM.

DFDMLRCMLGRVYRPCWAV (disulfide 7-16, also called Ala^18) [SEQ. ID. NO. 55] = 80.8

The record that follows has no EC50 (aequorin functional assay) shown yet.
Recorded EC50 (aequorin functional assay) (binder DFDMLRCMAGRVYRPCWQV (disulfide 7-16, also called Ala^9) [SEQ. ID. NO. 48] ): 95.7
